Here the recorded melting point is given for each entry.

Consider the following illustrative entries.
Query :: Which melting point is listed for "Cn1ncc2c(N3CCN(C(=S)NCc4cccnc4)CC3)ncnc21" ?
Result :: 210 to 211 °C

Query :: One more compound: "Cc1nn(C)c2ncc(C(N)=O)c(N3CCN(C(=O)Nc4ccc(Oc5ccccc5)cc4)CC3)c12"
Result :: 248 to 250 °C

Query :: One more compound: "Nc1nc(N2CCN(C(=O)Nc3ccc(Oc4ccccc4)cc3)CC2)c2[nH]cnc2n1"
Result :: 244 to 258 °C

Query :: One more compound: "O=C(Nc1ccc(Oc2ccccc2)cc1)N1CCN(c2ncnc3nc[nH]c23)CC1"
Result :: 250 to 251 °C

Query :: One more compound: "Cl.Cl.S=C(NCc1cccnc1)N1CCN(c2ncnc3nc[nH]c23)CC1"
Result :: 178 to 185 °C

Others:
Query :: Which melting point is listed for "O=C(Nc1ccc([N+](=O)[O-])cc1)N1CCN(c2ncnc3nc[nH]c23)CC1" ?
Result :: 270 to 275 °C (dec.)

----------
attribute-measured: melting point

Query :: Which melting point is listed for "Cl.Cl.S=C(NCc1cccnc1)N1CCN(c2ncnc3c2cnn3-c2ccccc2)CC1" ?
Result :: 160 to 163 °C

Query :: One more compound: "S=C(NCc1ccccc1)N1CCN(c2ncnc3ncccc23)CC1"
Result :: 169 to 170 °C

Query :: One more compound: "Cn1cnc2c(N3CCN(C(=O)Nc4ccc(Oc5ccccc5)cc4)CC3)ncnc21"
Result :: 168 to 169 °C

Others:
Query :: Which melting point is listed for "Cn1ncc2c(N3CCN(C(=S)NCc4ccccc4)CC3)ncnc21" ?
Result :: 175 to 176 °C

Query :: One more compound: "O=C(Nc1ccc(Oc2ccccc2)cc1)N1CCN(c2ncnc3ncccc23)CC1"
Result :: 104 to 106 °C

Query :: One more compound: "Cl.Cl.Nc1nc(N2CCN(C(=S)NCc3cccnc3)CC2)c2[nH]cnc2n1"
Result :: 180 to 185 °C (dec.)

Query :: One more compound: "Cn1ncc2c(N3CCN(C(=O)Nc4ccc(Oc5ccccc5)cc4)CC3)ncnc21"
Result :: 155 to 156 °C

Query :: One more compound: "Nc1nc(N2CCN(C(=O)Nc3ccc([N+](=O)[O-])cc3)CC2)c2[nH]cnc2n1"
Result :: 208 to 214 °C

Query :: One more compound: "Nc1nc(N2CCN(C(=S)NCc3ccccc3)CC2)c2[nH]cnc2n1"
Result :: 242 to 245 °C

Query :: One more compound: "S=C(NCc1ccccc1)N1CCN(c2ncnc3nc[nH]c23)CC1"
Result :: 255 to 260 °C

----------
- system-tested: human β-PDGF receptor (Homo sapiens)
- Construct: expressed in transfected cells; host or cells: Chinese hamster ovary (CHO) cells
- Sequence (P09619 33-1106): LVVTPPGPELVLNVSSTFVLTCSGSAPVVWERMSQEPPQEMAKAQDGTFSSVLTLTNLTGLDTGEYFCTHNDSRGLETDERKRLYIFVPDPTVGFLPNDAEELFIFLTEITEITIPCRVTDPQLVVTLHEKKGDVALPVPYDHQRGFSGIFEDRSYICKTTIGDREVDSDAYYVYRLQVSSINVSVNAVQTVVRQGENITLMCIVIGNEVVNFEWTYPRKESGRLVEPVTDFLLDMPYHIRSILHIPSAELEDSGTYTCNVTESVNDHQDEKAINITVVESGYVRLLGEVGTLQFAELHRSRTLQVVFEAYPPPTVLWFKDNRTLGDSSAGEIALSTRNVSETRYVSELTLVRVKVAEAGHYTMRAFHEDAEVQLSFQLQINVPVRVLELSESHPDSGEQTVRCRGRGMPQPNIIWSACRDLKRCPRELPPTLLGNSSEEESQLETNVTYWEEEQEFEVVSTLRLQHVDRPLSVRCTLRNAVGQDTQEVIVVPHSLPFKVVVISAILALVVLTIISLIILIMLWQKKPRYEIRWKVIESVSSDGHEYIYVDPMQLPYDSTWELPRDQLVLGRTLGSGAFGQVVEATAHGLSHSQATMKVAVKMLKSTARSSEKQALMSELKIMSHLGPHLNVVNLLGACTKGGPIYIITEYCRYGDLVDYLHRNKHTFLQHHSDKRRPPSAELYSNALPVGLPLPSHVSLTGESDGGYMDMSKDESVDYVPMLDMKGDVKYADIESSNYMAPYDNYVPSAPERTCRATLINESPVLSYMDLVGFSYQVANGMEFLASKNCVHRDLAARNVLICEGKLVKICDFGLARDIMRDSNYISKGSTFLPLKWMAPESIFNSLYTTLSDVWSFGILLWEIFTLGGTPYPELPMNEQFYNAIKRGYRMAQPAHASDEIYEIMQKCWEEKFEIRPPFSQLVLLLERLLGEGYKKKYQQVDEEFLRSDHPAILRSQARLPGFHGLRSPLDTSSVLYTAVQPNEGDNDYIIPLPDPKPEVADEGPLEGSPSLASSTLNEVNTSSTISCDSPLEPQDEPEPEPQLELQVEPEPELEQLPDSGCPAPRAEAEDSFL
- test-summary: PDGF receptor phosphorylation inhibition test
- Type: cell-based
- particulars: CHO cells expressing human β-PDGF receptor; test compound at 10 μM
attribute-measured: inhibition at 10 µM (%)
Expressed in %, but write only the number.

Query :: Which inhibition at 10 µM is listed for COc1cc2ncnc(N3CCN(C(SC)=C(C#N)C#N)CC3)c2cc1OC [Compound 64] ?
Result :: 82

Query :: One more compound: COc1ccc(CNC(=C(C#N)C#N)N2CCN(c3ncnc4cc(OC)c(OC)cc34)CC2)cc1 [Compound 53]
Result :: 87

Query :: One more compound: COc1cc2ncnc(N3CCN(C(NCc4cccc(Cl)c4)=C(C#N)C#N)CC3)c2cc1OC [Compound 51]
Result :: 82

Others:
Query :: Which inhibition at 10 µM is listed for COc1cc2ncnc(N3CCN(C(=NC#N)Oc4ccccc4)CC3)c2cc1OC [Compound 67] ?
Result :: 95

Query :: One more compound: O=C(Nc1ccc(Oc2ccccc2)cc1)N1CCN(c2ncnc3cnc(F)cc23)CC1 [Compound 22]
Result :: 66
